- assay.overview: Pharmacokinetics study after IV and PO administration to SD rats
- Assay type: in vivo
- experimental.setup: Sprague-Dawley, rat, plasma, po, 20 mg/kg, PO 20 mg/kg, 24 h; individual animals 201, 202, 203; read-out: Individual plasma concentration
measured.quantity: concentration at 24 h (ng/mL)
Numbers only, in ng/mL.

Noted for COc1cc(OC)c(Cl)c(-c2ccc3c(/C=C/c4ccc(N(C)C(=O)CN5CCN(C)CC5)cc4)n[nH]c3c2)c1Cl [YTH‐60] : its concentration at 24 h reads 24.5

----------
- system: Flt3 (h) (Homo sapiens)
- Sequence (P36888 27-993): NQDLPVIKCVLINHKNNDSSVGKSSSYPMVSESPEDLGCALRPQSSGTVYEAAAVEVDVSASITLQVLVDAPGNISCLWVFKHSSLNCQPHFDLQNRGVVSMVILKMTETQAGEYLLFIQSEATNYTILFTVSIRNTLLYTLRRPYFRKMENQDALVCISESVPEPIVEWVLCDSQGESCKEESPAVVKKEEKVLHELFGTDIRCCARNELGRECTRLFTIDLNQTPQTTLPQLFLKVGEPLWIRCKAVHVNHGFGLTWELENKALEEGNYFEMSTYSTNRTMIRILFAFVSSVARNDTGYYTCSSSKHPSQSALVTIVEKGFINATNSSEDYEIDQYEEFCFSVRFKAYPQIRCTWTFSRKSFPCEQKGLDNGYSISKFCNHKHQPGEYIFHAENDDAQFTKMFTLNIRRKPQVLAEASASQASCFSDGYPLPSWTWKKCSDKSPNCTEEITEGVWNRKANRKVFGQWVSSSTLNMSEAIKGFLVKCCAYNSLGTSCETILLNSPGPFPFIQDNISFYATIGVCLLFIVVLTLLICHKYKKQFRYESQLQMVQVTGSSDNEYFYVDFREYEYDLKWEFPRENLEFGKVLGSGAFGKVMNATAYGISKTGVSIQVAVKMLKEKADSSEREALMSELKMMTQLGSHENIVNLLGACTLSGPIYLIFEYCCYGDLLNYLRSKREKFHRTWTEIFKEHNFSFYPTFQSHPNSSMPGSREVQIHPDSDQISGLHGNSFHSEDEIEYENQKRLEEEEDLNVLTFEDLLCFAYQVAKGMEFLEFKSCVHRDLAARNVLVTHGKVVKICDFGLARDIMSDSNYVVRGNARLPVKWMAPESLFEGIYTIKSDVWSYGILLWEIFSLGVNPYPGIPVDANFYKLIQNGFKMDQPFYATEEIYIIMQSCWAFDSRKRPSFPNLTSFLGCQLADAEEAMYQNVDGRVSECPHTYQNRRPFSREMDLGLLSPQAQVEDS
measured.quantity: pIC50
Answers are plain numbers, as −log10 of the molar value.

Noted for COc1cc(OC)c(Cl)c(-c2ccc3c(/C=C/c4ccc(N(C)C(=O)CN5CCN(C)CC5)cc4)n[nH]c3c2)c1Cl : its pIC50 reads 6.53
